System: 293T cells
method.description: Cell survival rate assay (CCK-8)
Type: cell-based
test.settings: LNP with 1.5 μg Fluc-mRNA, 24 hours, CCK-8
Task for the reader: assign each of the following compounds its reported Cell survival rate.
Write it as a number; the unit % goes unstated.

INPUT: Consider the compound shown here: CCCCCCCCC(CCCCCCCC)C(=O)OCCCCCCN(CCO)CCCN(CCO)CCCCCCOC(=O)C(CCCCCCCC)CCCCCCCC What is its recorded Cell survival rate?
OUTPUT: 54.14

INPUT: Then this compound: CCCCCCCCC(CCCCCCCC)COC(=O)CCCCCN(CCCO)CCCCN(CCCO)CCCCCC(=O)OCC(CCCCCCCC)CCCCCCCC
OUTPUT: 27.93

INPUT: Then this compound: CCCCCCCCCCCOC(=O)CCCN(CCO)CCCN(CCO)CCCCCC(=O)OC(CCCCCCCC)CCCCCCCC
OUTPUT: 47.20

INPUT: Then this compound: CCCCCCCCCCOC(=O)CCCCCN(CCO)CCN(CCO)CCCCCC(=O)OCCC(CCCCCC)CCCCCC
OUTPUT: 16.33

INPUT: Then this compound: CCCCCCCCCCCOC(=O)CCCN(CCO)CCN(CCO)CCCCCC(=O)OCC(CCCCCCCC)CCCCCCCC
OUTPUT: 46.11

INPUT: Then this compound: CCCCCCCCC(CCCCCCCC)COC(=O)CCCCCN(CCCO)CCCN(CCCO)CCCCCC(=O)OCC(CCCCCCCC)CCCCCCCC
OUTPUT: 71.14

INPUT: Then this compound: CCCCCCCCCCOC(=O)CCCCCN(CCO)CCCN(CCO)CCCCCC(=O)OCCC(CCCCCC)CCCCCC
OUTPUT: 21.34

INPUT: Then this compound: CCCCCCCCC(CCCCCCCC)OC(=O)CCCCCN(CCO)CCN(CCO)CCCCCC(=O)OC(CCCCCCCC)CCCCCCCC
OUTPUT: 75.21

INPUT: Then this compound: CCCCCCCCCCOC(=O)CCCN(CCO)CCN(CCO)CCCCCC(=O)OC(CCCCCCCC)CCCCCCCC
OUTPUT: 41.86

INPUT: Then this compound: CCCCCCCCCCCCC(O)CN(C)CCCCCC(=O)OCC(CCCCCC)CCCCCCCC (stereo not shown) [HHMA, reference compound]
OUTPUT: 64.27

INPUT: Then this compound: CCCCCCCCCCOC(=O)CCCN(CCO)CCCN(CCO)CCCC(=O)OC(CCCCCCCC)CCCCCCCC
OUTPUT: 28.75

INPUT: Then this compound: CCCCCCCCC(CCCCCC)C(=O)OCCCCCCN(CCCCO)CCCCCCOC(=O)C(CCCCCC)CCCCCCCC (stereo not shown) [ALC-0315, reference compound]
OUTPUT: 47.21

INPUT: Then this compound: CCCCCCCCC(CCCCCCCC)OC(=O)CCCCCCCN(CCO)CCCCCCCC(=O)OCCC(CCCCCC)CCCCCC [Compound 21, reference compound]
OUTPUT: 67.84

INPUT: Then this compound: CCCCCCCCC(CCCCCCCC)OC(=O)CCCCCCCN(CCO)CCN(CCO)CCCCCCCC(=O)OC(CCCCCCCC)CCCCCCCC
OUTPUT: 70.76

INPUT: Then this compound: CCCCCCCCCCCOC(=O)CCCN(CCO)CCN(CCO)CCCCCCOC(=O)CC(CCCCCC)CCCCCC
OUTPUT: 24.96

INPUT: Then this compound: CCCCCCCCCCCOC(=O)CCCCCN(CCO)CCCCCCCC(=O)OC(CCCCCCCC)CCCCCCCC [SM-102, reference compound]
OUTPUT: 67.90
